EXPERIMENTAL SYSTEM: Serine/threonine-protein kinase N1 (Homo sapiens)
PROTOCOL DESCRIPTION: Inhibition of PRK1 at 10 uM
The source made the active and inactive calls. The calls are words filed in the database; no cut-off is given here.
EXPERIMENTAL ENDPOINT: inhibition

Solved entries (count: 5):
Measured inhibition, O=C1c2ccc(Nc3ccc(F)cc3F)cc2CCc2c(OCCN3CCOCC3)cccc21 : inactive

Just so you know, measured inhibition for COc1ccc2c(c1)C(=O)c1ccc(Nc3ccccc3C(F)(F)F)cc1CC2 came out at inactive

The reported value for COc1cccc2c1CCc1cc(Nc3ccccc3N)ccc1C2=O in terms of inhibition is inactive

Summary for this compound, COc1ccc2c(c1)C(=O)c1ccc(Nc3cc(F)cc(F)c3F)cc1CC2 : inhibition is inactive

# compound COc1ccc2ccc3cc(Nc4ccc(F)cc4F)ccc3c(=O)c2c1 ; its inhibition = inactive

// moving on: another record for inhibition
// recorded inhibition for CC1(C)OC[C@H](COc2ccc3c(c2)C(=O)c2ccc(Nc4ccccc4N)cc2CC3)O1 : inactive

====

EXPERIMENTAL SYSTEM: Tyrosine-protein kinase receptor UFO (Homo sapiens) (UniProt P30530)
Sequence (P30530 whole entry): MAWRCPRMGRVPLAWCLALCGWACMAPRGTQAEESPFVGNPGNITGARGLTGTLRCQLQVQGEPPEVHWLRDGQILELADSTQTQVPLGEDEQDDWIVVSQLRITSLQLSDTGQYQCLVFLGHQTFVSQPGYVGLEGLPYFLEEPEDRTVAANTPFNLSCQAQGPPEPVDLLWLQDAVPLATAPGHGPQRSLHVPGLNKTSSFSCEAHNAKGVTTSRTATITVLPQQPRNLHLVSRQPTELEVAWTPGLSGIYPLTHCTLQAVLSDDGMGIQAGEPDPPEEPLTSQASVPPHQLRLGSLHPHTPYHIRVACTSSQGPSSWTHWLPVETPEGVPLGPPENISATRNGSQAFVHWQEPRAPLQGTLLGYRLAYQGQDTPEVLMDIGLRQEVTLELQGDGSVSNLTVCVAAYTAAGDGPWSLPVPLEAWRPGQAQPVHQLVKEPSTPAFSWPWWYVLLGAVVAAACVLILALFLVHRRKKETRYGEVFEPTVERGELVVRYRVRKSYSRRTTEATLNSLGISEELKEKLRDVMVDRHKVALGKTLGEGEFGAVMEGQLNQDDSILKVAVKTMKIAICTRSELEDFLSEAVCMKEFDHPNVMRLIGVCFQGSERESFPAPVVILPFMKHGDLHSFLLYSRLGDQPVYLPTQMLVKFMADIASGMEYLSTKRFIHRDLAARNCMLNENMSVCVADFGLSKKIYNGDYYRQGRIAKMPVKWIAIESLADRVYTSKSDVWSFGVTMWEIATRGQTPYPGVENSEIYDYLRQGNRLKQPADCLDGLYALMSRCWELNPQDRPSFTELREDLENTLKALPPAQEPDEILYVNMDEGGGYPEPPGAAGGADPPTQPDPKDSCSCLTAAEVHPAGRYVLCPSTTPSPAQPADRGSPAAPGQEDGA
PROTOCOL DESCRIPTION: Inhibition of AXL at 10 uM
Activity calls are given as the source filed them. The calls are words filed in the database; no cut-off is given here.
EXPERIMENTAL ENDPOINT: inhibition

Given item O=C1c2ccc(Nc3ccc(F)cc3F)cc2CCc2c(OCCN3CCOCC3)cccc21 , the value recorded as its inhibition is inactive

The reported value for COc1ccc2c(c1)C(=O)c1ccc(Nc3ccc(F)cc3C)cc1CC2 in terms of inhibition is inactive

Record summary for O=C1c2ccc(Nc3ccc(F)cc3F)cc2CCc2cc(OC[C@@H](O)CO)ccc21 : reported inhibition = inactive

GET /value?item= COc1ccc2c(c1)C(=O)c1ccc(Nc3ccc(F)cc3Cl)cc1CC2 &field=inhibition returns inactive

Let us examine a further case.
Query COc1ccc2c(c1)C(=O)c1ccc(Nc3ccc(C(F)(F)F)cc3N)cc1CC2 yields inhibition of inactive

====

EXPERIMENTAL SYSTEM: Mitogen-activated protein kinase 14 (Homo sapiens)
PROTOCOL DESCRIPTION: Inhibition of p38alpha by immunosorbent based kinase assay
EXPERIMENTAL ENDPOINT: pIC50
Please treat pIC50 as minus the base-10 logarithm of the molar concentration.

Reported pIC50 of COc1ccc2c(c1)C(=O)c1ccc(Nc3ccc(F)c(F)c3F)cc1CC2 : 5.45

get_value(item= O=C1c2ccc(Nc3ccc(F)cc3F)cc2CCc2ccc(OCCN3CCOCC3)cc21 , readout=pIC50) returns 8.00

Lab note: CC1(C)OC[C@@H](COc2ccc3c(c2)CCc2cc(Nc4ccc(F)cc4F)ccc2C3=O)O1 gave pIC50 of 6.44

Item: CC1(C)OC[C@H](COc2cccc3c2CCc2cc(Nc4ccccc4N)ccc2C3=O)O1 | pIC50: 5.98

Reported pIC50 ( O=C1c2ccc(Nc3ccc(F)cc3F)cc2CCc2ccc(O)cc21 ) = 7.70

====

EXPERIMENTAL SYSTEM: Mitogen-activated protein kinase 14 (Homo sapiens, UniProt Q16539)
Sequence (Q16539 whole entry): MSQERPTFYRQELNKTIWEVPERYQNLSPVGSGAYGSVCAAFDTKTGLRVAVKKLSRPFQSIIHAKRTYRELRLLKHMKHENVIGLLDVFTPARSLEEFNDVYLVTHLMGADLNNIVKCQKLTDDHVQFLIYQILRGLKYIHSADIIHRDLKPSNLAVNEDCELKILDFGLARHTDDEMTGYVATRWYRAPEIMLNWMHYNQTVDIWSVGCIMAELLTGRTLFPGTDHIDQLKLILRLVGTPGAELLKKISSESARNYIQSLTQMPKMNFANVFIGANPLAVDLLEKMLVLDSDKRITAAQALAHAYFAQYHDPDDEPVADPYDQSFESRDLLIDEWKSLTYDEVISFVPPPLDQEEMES
PROTOCOL DESCRIPTION: Inhibition of p38alpha-dependent TNFalpha production in human whole blood
For each entry below, report its IC50 value.
# number only, unit nM dropped from output

Summary line: CC1(C)OC[C@H](COc2ccc3c(c2)C(=O)c2ccc(Nc4ccccc4N)cc2CC3)O1 , Mitogen-activated protein kinase 14 (Homo sapiens, UniProt Q16539), reported IC50 = 190

Observed IC50, Mitogen-activated protein kinase 14 (Homo sapiens, UniProt Q16539), Nc1ccccc1Nc1ccc2c(c1)CCc1ccc(OC[C@@H](O)CO)cc1C2=O : 170

Entry O=C1c2ccc(Nc3ccc(F)cc3F)cc2CCc2ccc(OCCN3CCOCC3)cc21 : IC50 on Mitogen-activated protein kinase 14 (Homo sapiens, UniProt Q16539) = 80

Summary line: CC1(C)OC[C@@H](COc2ccc3c(c2)C(=O)c2ccc(Nc4ccc(F)cc4F)cc2CC3)O1 , Mitogen-activated protein kinase 14 (Homo sapiens, UniProt Q16539), reported IC50 = 230

COc1ccc2c(c1)C(=O)c1ccc(Nc3ccc(F)cc3C)cc1CC2 on Mitogen-activated protein kinase 14 (Homo sapiens, UniProt Q16539) gives IC50 = 3900

For the molecule O=C1c2ccc(Nc3ccc(F)cc3F)cc2CCc2ccc(OCCCO)cc21 , the measured IC50 on Mitogen-activated protein kinase 14 (Homo sapiens, UniProt Q16539) was 190

Value sought: IC50, system Mitogen-activated protein kinase 14 (Homo sapiens, UniProt Q16539), item Nc1ccccc1Nc1ccc2c(c1)CCc1cc(OC[C@H](O)CO)ccc1C2=O . Result: 6000

// IC50 (Mitogen-activated protein kinase 14 (Homo sapiens, UniProt Q16539)) for O=C1c2ccc(Nc3ccccc3)cc2CCc2ccc(O)cc21 = 2200

Per the reported Mitogen-activated protein kinase 14 (Homo sapiens, UniProt Q16539) data, CC1(C)OC[C@@H](COc2ccc3c(c2)CCc2cc(Nc4ccc(F)cc4F)ccc2C3=O)O1 has IC50 of 123000

For CC1(C)OC[C@H](COc2ccc3c(c2)C(=O)c2ccc(Nc4ccc(F)cc4F)cc2CC3)O1 on Mitogen-activated protein kinase 14 (Homo sapiens, UniProt Q16539), measured IC50 was 230
